Target: PD-1/PD-L1 (Homo sapiens (Human))
Sequence (Q9NZQ7 19-238): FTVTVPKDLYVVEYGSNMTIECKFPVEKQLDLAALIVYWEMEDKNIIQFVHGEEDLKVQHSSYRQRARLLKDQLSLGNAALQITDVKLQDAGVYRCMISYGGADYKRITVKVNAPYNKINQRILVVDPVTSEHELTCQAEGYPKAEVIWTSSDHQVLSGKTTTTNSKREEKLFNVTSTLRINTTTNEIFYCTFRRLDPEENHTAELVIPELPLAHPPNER
Experiment: Homogeneous time-resolved fluorescence (HTRF) binding assay
Conditions: CisBio kit, read-out: IC50 of compounds binding to PD-1/PD-L1
pIC50: −log10 of the molar value.

{"structureString": "Cc1cc(/C=C/c2cccc(-c3ccccc3)c2C)c(Cl)cc1CN1CCCC[C@H]1C(=O)O", "pIC50": 8.19}
{"structureString": "Cc1cc(CN2CCCC[C@H]2C(=O)O)c(O)cc1/C=C/c1cccc(-c2ccccc2)c1C#N", "pIC50": 5.94}
{"structureString": "COCCOc1cc(/C=C/c2cccc(-c3ccccc3)c2C#N)c(CN[C@@](C)(CO)C(=O)O)cc1Cl", "pIC50": 5.94}
{"structureString": "[2H]c1c([2H])c([2H])c(-c2cccc(/C=C/c3cc(OC)c(CN4CCCC[C@H]4C(=O)O)cc3C(F)(F)F)c2C)c([2H])c1[2H]", "pIC50": 9.14}
{"structureString": "Cc1cc(/C=C/c2cccc(-c3ccccc3)c2C#N)c(Cl)cc1CN1CCCC[C@H]1C(=O)O", "pIC50": 8.80}
{"structureString": "Cc1cc(/C=C/c2cccc(-c3ccccc3)c2C#N)c(Cl)cc1CN1CCOC[C@H]1C(=O)O", "pIC50": 7.59}
{"structureString": "N#Cc1c(/C=C/c2ccc(CN3CCCC[C@H]3C(=O)O)cc2Cl)cccc1-c1ccccc1", "pIC50": 7.58}
